B1: TPR t1 (parent)
chain: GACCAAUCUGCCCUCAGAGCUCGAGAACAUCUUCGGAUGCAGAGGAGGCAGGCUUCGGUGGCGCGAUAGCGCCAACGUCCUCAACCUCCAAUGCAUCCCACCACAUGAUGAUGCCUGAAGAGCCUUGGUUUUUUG

- Variants of: B1
- Protocol description: polymerase ribozyme fitness, log enrichment relative to wild type (log ratio); higher = more active; in vitro selection for triplet polymerase activity
Please respond with reported polymerase ribozyme fitness (log ratio) for every item in the list.
Give bare numbers.

Below, each entry is followed by its recorded polymerase ribozyme fitness (log ratio) result.
Give the measured polymerase ribozyme fitness (log ratio) of U9G C34U A103U .
-4.66

Give the measured polymerase ribozyme fitness (log ratio) of U14G G128A .
-3.77

Give the measured polymerase ribozyme fitness (log ratio) of C82G U109G .
-5.33

Give the measured polymerase ribozyme fitness (log ratio) of A37U A46U G47A C123G .
-1.6

Give the measured polymerase ribozyme fitness (log ratio) of A5U G47A .
-1.21

Give the measured polymerase ribozyme fitness (log ratio) of A2U C72A .
-2.16

Give the measured polymerase ribozyme fitness (log ratio) of A24U C49A C82G U112A U133C .
-4.62

Give the measured polymerase ribozyme fitness (log ratio) of A5G A6G C11U C28U G120U .
-2.3

Give the measured polymerase ribozyme fitness (log ratio) of G120U U129G .
-1.17

Give the measured polymerase ribozyme fitness (log ratio) of G10U U14A U116C A121C .
-4.9

Dear colleague, could you send me polymerase ribozyme fitness (log ratio) for each of the items below? Thanks.
1. C64G G77A A111G U116C
2. A2G C12U G47A G63U G113U

[-6.18, -4.51]

Cited source for all entries: the RNAGym collection of RNA variant scans (doi:10.1073/pnas.2313332121)
